# Target of assay: mu opiate receptor (Rattus norvegicus, UniProt P33535)
# Construct: from tissue; host or cells: rat brain membranes/homogenate
# Sequence (P33535 whole entry): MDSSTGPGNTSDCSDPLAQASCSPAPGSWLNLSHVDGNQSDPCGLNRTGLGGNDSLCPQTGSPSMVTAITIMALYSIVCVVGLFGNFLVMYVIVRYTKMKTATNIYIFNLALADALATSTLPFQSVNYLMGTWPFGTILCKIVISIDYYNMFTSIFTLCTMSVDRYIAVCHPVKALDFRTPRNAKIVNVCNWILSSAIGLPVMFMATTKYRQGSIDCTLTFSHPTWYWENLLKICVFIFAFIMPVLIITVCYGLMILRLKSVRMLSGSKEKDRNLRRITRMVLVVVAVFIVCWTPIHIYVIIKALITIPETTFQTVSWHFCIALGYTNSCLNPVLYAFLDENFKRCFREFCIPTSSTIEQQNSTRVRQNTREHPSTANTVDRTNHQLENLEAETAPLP
# Run description: Inhibition of [3H]DAMGO binding to the mu opiate receptor in rat brain homogenates
# Set-up: unit not given beside the values
# Condition description: mean bound radioactivity of [3H]DAMGO; 0.08 mg of compound per milliliter, 7 nM 3H-labeled DAMGO, rat brain membranes
Note to self: class labels come from recorded Mean, ranges listed here: low range (below 800), mid range (800 to below 900), high range (900 or more)

Would you please look over these solved cases?
| Compound | Target of assay | Discrete label |
| --- | --- | --- |
| CC(C)c1nc(C(C)C)n2c1NC(=O)C2C(C)C (racemic) [Pool 123] | mu opiate receptor (Rattus norvegicus, UniProt P33535) | mid range |
| CC(C)c1nc(Cc2cccc(Br)c2)n2c1NC(=O)C2C(C)C (racemic) [Pool 72] | mu opiate receptor (Rattus norvegicus, UniProt P33535) | low range |
| CCOc1ccc(Cc2nc(C(C)C)c3n2C(C(C)C)C(=O)N3)cc1 (racemic) [Pool 79] | mu opiate receptor (Rattus norvegicus, UniProt P33535) | high range |
| Cc1nc(Cc2ccccc2)c2n1C(C(C)C)C(=O)N2 (racemic) [Pool 63] | mu opiate receptor (Rattus norvegicus, UniProt P33535) | mid range |

Prompt: Which category fits this record: CC(C)c1nc(CC(C)(C)C)n2c1NC(=O)C2C(C)C (stereo not shown) [Pool 136]
Response: high range

Prompt: Returns: class label. Input: Cc1ccc(Cc2nc(C(C)C)c3n2C(C(C)C)C(=O)N3)cc1 (racemic) [Pool 74]
Response: mid range

----------
# Target of assay: kappa opiate receptor (Cavia porcellus, UniProt P41144)
# Construct: guinea pig cortices and cerebella were homogenized in 40 mL of Buffer A; from tissue; host or cells: guinea pig cortices and cerebella, crude membrane suspension
# Sequence (P41144 whole entry): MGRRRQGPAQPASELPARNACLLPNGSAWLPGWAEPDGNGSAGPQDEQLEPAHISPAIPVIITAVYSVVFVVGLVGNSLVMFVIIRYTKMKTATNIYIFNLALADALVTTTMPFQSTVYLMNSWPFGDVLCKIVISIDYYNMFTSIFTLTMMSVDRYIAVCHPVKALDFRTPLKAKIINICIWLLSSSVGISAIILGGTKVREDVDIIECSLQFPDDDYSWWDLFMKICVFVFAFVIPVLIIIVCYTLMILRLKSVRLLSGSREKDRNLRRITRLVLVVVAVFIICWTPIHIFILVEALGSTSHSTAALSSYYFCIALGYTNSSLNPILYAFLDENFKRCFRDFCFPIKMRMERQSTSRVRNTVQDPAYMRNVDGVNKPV
# Run description: Inhibition of tritiated U69,593 binding to the kappa opiate receptor in guinea pig brain homogenates
# Condition description: inhibition of [3H]U69,593 binding; 3 nm tritiated U69,593, guinea pig brain membranes
# % Inhibition values compiled below
Write down the numeric answer in % and omit the unit.

Record excerpt, results attached:
| Compound | Target of assay | % Inhibition, % |
| --- | --- | --- |
| CC(C)c1nc(Cc2ccc(Cl)c(Cl)c2)n2c1NC(=O)C2C(C)C (racemic) | kappa opiate receptor (Cavia porcellus, UniProt P41144) | 10.777 |
| Cc1nc(CO)c2n1C(C(C)C)C(=O)N2 (stereo not shown) | kappa opiate receptor (Cavia porcellus, UniProt P41144) | 21.173 |
| CC(C)c1nc(C(C)C)n2c1NC(=O)C2C(C)C (racemic) | kappa opiate receptor (Cavia porcellus, UniProt P41144) | 42.876 |

Prompt: Find the measured % Inhibition of Cc1nc(C(C)C)c2n1C(CC(C)C)C(=O)N2 (stereo not shown) [Pool 4] with kappa opiate receptor (Cavia porcellus, UniProt P41144) as test system.
Response: 4.580

Prompt: With kappa opiate receptor (Cavia porcellus, UniProt P41144) as the test system, provide measured % Inhibition for this compound: COc1ccc(Cc2nc(C(C)C)c3n2C(C(C)C)C(=O)N3)cc1 (racemic)
Response: 12.640

Prompt: Jot down % Inhibition (kappa opiate receptor (Cavia porcellus, UniProt P41144)) of CCCc1nc(C)n2c1NC(=O)C2C(C)C (racemic) [Pool 61] .
Response: 49.155

Prompt: Give % Inhibition for this entry on kappa opiate receptor (Cavia porcellus, UniProt P41144): CCCCc1nc(C)n2c1NC(=O)C2C(C)C (stereo not shown) [Pool 44]
Response: −10.299

Prompt: Quote kappa opiate receptor (Cavia porcellus, UniProt P41144) % Inhibition for entry Cc1nc(Cc2ccc(O)cc2)c2n1C(C(C)C)C(=O)N2 (stereo not shown) [Pool 48] .
Response: 15.347

Prompt: Would you please give the reported % Inhibition of Cc1nc(CC(C)C)c2n1C(C(C)C)C(=O)N2 (stereo not shown) [Pool 53] with kappa opiate receptor (Cavia porcellus, UniProt P41144)?
Response: −6.356

Prompt: Check kappa opiate receptor (Cavia porcellus, UniProt P41144) data and give % Inhibition for CC(C)c1nc(CC2CCCCC2)n2c1NC(=O)C2C(C)C (stereo not shown) .
Response: 29.315

Prompt: Write down the reported % Inhibition (system: kappa opiate receptor (Cavia porcellus, UniProt P41144)) of CCC(C)Cc1nc(C(C)C)c2n1C(C(C)C)C(=O)N2 (stereo not shown)
Response: 26.689

Prompt: For kappa opiate receptor (Cavia porcellus, UniProt P41144), give the measured % Inhibition of the entry CCCCC(CC)c1nc(C(C)C)c2n1C(C(C)C)C(=O)N2 (mixture of isomers)
Response: 42.437

Prompt: Provide % Inhibition, recorded with kappa opiate receptor (Cavia porcellus, UniProt P41144), of COc1cccc(Cc2nc(C(C)C)c3n2C(C(C)C)C(=O)N3)c1 (racemic)
Response: 8.098

Prompt: Name the value of % Inhibition reported for CCC(C)C1C(=O)Nc2c(C(C)C)nc(C)n21 (stereo not shown) [Pool 21] when tested on kappa opiate receptor (Cavia porcellus, UniProt P41144).
Response: 43.079

Prompt: Return reported % Inhibition for target or system kappa opiate receptor (Cavia porcellus, UniProt P41144), item CCC(C)c1nc(C)n2c1NC(=O)C2C(C)C (stereo not shown) [Pool 38] .
Response: 31.361

Prompt: Find the measured % Inhibition of CC(C)c1nc(C2(c3ccccc3)CC2)n2c1NC(=O)C2C(C)C (racemic) with kappa opiate receptor (Cavia porcellus, UniProt P41144) as test system.
Response: 15.338

Prompt: Lab note: kappa opiate receptor (Cavia porcellus, UniProt P41144) assay, enter % Inhibition for Cc1nc(CC(C)C)c2n1C(C(C)C)C(=O)N2 (stereo not shown) [Pool 37] here
Response: 37.027

Prompt: Give reported % Inhibition for Cc1nc(C(C)C)c2n1C(Cc1ccccc1)C(=O)N2 (stereo not shown) (kappa opiate receptor (Cavia porcellus, UniProt P41144))
Response: 25.116

Prompt: For kappa opiate receptor (Cavia porcellus, UniProt P41144), give the measured % Inhibition of the entry CC(C)c1nc(CCC2CCCC2)n2c1NC(=O)C2C(C)C (stereo not shown)
Response: 30.912

----------
# Target of assay: mu opiate receptor (Rattus norvegicus)
# Construct: from tissue; host or cells: rat brain membranes/homogenate
# Run description: Inhibition of [3H]DAMGO binding to the mu opiate receptor in rat brain homogenates
# Condition description: [3H]DAMGO bound; 0.08 mg of compound per milliliter, 7 nM 3H-labeled DAMGO, rat brain membranes
Form field: % Bound (one value per entry).
Please give a number only; it is taken to be in %.

Some entries whose results are on file:
| Compound | % Bound, % |
| --- | --- |
| CCC(c1ccccc1)c1nc(C(C)C)c2n1C(C(C)C)C(=O)N2 (mixture of isomers) | 66 |
| Cc1nc(C(C)C)c2n1C(C(C)C)C(=O)N2 (stereo not drawn) [Pool 52] | 68 |

Prompt: Give a short answer stating reported % Bound for CC(C)c1nc(C(C)C)n2c1NC(=O)C2C(C)C (racemic) .
Response: 55

Prompt: Recall and state the measured % Bound for Cc1nc(C(C)C)c2n1C(C(C)C)C(=O)N2 (stereo not drawn) [Pool 36] .
Response: 66

Prompt: # return recorded % Bound for entry CC(C)c1nc(CCCC2CCCCC2)n2c1NC(=O)C2C(C)C (stereo not drawn)
Response: 32

Prompt: Return the recorded % Bound value; entry: CC(C)c1nc(CC2CC3CCC2C3)n2c1NC(=O)C2C(C)C (stereo not drawn)
Response: 64

----------
# Target of assay: kappa opiate receptor (Cavia porcellus, UniProt P41144)
# Construct: guinea pig cortices and cerebella were homogenized in 40 mL of Buffer A; from tissue; host or cells: guinea pig cortices and cerebella, crude membrane suspension
# Run description: Inhibition of tritiated U69,593 binding to the kappa opiate receptor in guinea pig brain homogenates
# Condition description: inhibition of [3H]U69,593 binding; 3 nm tritiated U69,593, guinea pig brain membranes
// reported % Inhibition per item
Give your result in % as a bare value.

Check out these entries, answers already filled in.
| Compound | Value observed |
| --- | --- |
| CC(C)CCc1nc(C(C)C)c2n1C(C(C)C)C(=O)N2 (stereo not drawn) [Pool 127] | 33.822 |
| Cc1nc(C(C)C)c2n1C(C)C(=O)N2 (stereo not drawn) [Pool 18] | 11.984 |
| Cc1nc(C(C)C)c2n1C(CC(C)C)C(=O)N2 (stereo not drawn) [Pool 20] | 31.004 |
| CCC(C)C1C(=O)Nc2c(C(C)C)nc(C)n21 (stereo not drawn) [Pool 5] | 24.957 |
| CC(C)c1nc(CCC2CCCCC2)n2c1NC(=O)C2C(C)C (stereo not drawn) [Pool 148] | 10.029 |

Prompt: Give the reported % Inhibition for this compound. CCCCC1C(=O)Nc2c(C(C)C)nc(C)n21 (stereo not drawn) [Pool 11]
Response: 19.966

All figures here come from patent US6545032B1.
